- Tested on: IL-8-induced neutrophil shape change in human whole blood
- assay_overview: Whole blood neutrophil shape change assay (L)
- Assay type: cell-based
- condition_parameters: Homo sapiens, Neutrophil, IL-8, human whole blood, read-out: Assay L WBSC IC50
Listed below: IC50 values for each entry.
Give the quantity in nM, number only.

Query the reported IC50 for IL-8-induced neutrophil shape change in human whole blood; item: `COc1ccncc1-c1nc(-c2cc(S(=O)(=O)NCCC(C)(C)O)ccc2C)cnc1N`
2180

Query the reported IC50 for IL-8-induced neutrophil shape change in human whole blood; item: `Cc1nnc(-c2nc(-c3cc(S(=O)(=O)N[C@H]4CC[C@H](O)CC4)ccc3C)cnc2N)o1`
803

Query the reported IC50 for IL-8-induced neutrophil shape change in human whole blood; item: Cc1ncc(-c2nc(-c3cc(S(=O)(=O)N[C@H]4C[C@@H](O)C4)ccc3C)cnc2N)s1 [Example 43a]
992

Query the reported IC50 for IL-8-induced neutrophil shape change in human whole blood; item: `Cc1ccc(S(=O)(=O)NCC2(O)COC2)cc1-c1cnc(N)c(-n2cncn2)n1`
2180

Query the reported IC50 for IL-8-induced neutrophil shape change in human whole blood; item: `Cc1ccc(S(=O)(=O)NCC(=O)C(C)(C)C)cc1-c1cnc(N)c(-n2cncn2)n1`
478

Query the reported IC50 for IL-8-induced neutrophil shape change in human whole blood; item: `Cc1noc(-c2nc(-c3cc(S(=O)(=O)N[C@H]4CC[C@H](O)CC4)ccc3C)cnc2N)n1`
687

Query the reported IC50 for IL-8-induced neutrophil shape change in human whole blood; item: `Cc1ccc(S(=O)(=O)NCC(C)(C)O)cc1-c1cnc(N)c(-c2nc(C(C)C)no2)n1`
2150

Query the reported IC50 for IL-8-induced neutrophil shape change in human whole blood; item: `Cc1ccc(S(=O)(=O)NCC(C)(F)F)cc1-c1cnc(N)c(-n2cncn2)n1`
1640
